Let's look at some IC50 data for Human sEH (hsEH) (Homo sapiens, UniProt P34913) that I collected from the literature.
endpoint: IC50

1. Cc1cc2nc(-c3ccc(F)cc3F)[nH]c2cc1C | ≥ 10000 nM
2. NS(=O)(=O)c1ccc(-n2nc(CCNC(=O)Nc3cccc(C(F)(F)F)c3)cc2-c2ccccc2)cc1 | 26 nM
3. O=C(NCCCc1ccccc1)N1CC2(CCN2Cc2ccccc2)C1 | 1980 nM
4. COc1cccc(CNC(=O)NCc2ccccc2)c1 | 534 nM
5. Cc1cc2nc(Nc3ccc(OC(F)(F)F)cc3)[nH]c2cc1C | 1000 to 10000 nM

---

Let's look at some IC50 data for Human sEH (hsEH) (Homo sapiens, UniProt P34913) that I collected from the literature.
endpoint: IC50 (nM)

1) O=C(NCc1ccccc1OC(F)(F)F)N1CC2(CCN2S(=O)(=O)c2ccc(Cl)cc2)C1 | 243
2) CS(=O)(=O)c1ccc(-n2nc(CNC(=O)Nc3ccc(C(F)(F)F)cc3)cc2-c2ccccc2)cc1 | 110
3) O=C(Nc1ccc(C(F)(F)F)cc1)Nc1cccc(C(=O)N2CCOCC2)c1 | 9
4) COc1cccc(CNC(=O)NCc2cccc(OC)c2)c1 | 222

---

Let's look at some IC50 data for Human sEH (hsEH) (Homo sapiens, UniProt P34913) that I collected from the literature.
endpoint: IC50

1) COc1ccc(-c2nc3cc(F)c(F)cc3[nH]2)cc1 | ≤ 1 µM
2) O=C(NCCCc1ccccc1)[C@@H]1CCC12CN(S(=O)(=O)c1ccccc1Cl)C2 | 2.79 µM
3) NS(=O)(=O)c1ccc(-n2nc(CCCNC(=O)Nc3ccc(C(F)(F)F)cc3)cc2-c2ccccc2)cc1 | 0.0009 µM
4) NS(=O)(=O)c1ccc(-n2nc(CCCNC(=O)NC3CCCCCC3)cc2-c2ccccc2)cc1 | 0.0005 µM
5) CC(C)c1cccc(C(C)C)c1NC(=O)NCCCc1cc(-c2ccccc2)n(-c2ccc(S(N)(=O)=O)cc2)n1 | 1.55 µM
6) CCCN(CCC)S(=O)(=O)c1ccc(-c2nc3cc(C)c(C)cc3[nH]2)cc1 | 1 to 10 µM
7) FC(F)(F)c1ccc(-c2nc3cc(Cl)c(Cl)cc3[nH]2)cc1 | 1 to 10 µM
8) CS(=O)(=O)c1ccc(-n2nc(CNC(=O)Nc3cccc(C(F)(F)F)c3)cc2-c2ccccc2)cc1 | 0.072 µM

---

pIC50: −log10 of the molar value.
Let's look at some pIC50 data for Human sEH (hsEH) (Homo sapiens, UniProt P34913) that I collected from the literature.
endpoint: pIC50

1) Fc1cc2nc(-c3ccc(C(F)(F)F)cc3)[nH]c2cc1Br | ≥ 6.00
2) Cc1cc2nc(-c3cccnc3)[nH]c2cc1C | ≤ 5.00
3) Fc1cc2nc(-c3ccc(C(F)(F)F)cc3)[nH]c2cc1Cl | ≥ 6.00
4) Cc1cc2nc(-c3ccccc3O)[nH]c2cc1C | ≤ 5.00
5) Cc1cc2nc(-c3ccccn3)[nH]c2cc1C | ≤ 5.00
6) O=C(Cc1ccccc1)Nc1nc2ccccc2[nH]1 | ≤ 5.00
7) N#Cc1ccc(-c2nc3cc(F)c(F)cc3[nH]2)cc1 | ≥ 6.00
8) CS(=O)(=O)c1ccc(-n2nc(CNC(=O)NC3CCCCCC3)cc2-c2ccccc2)cc1 | 8.59
9) CCc1ccc(-c2nc3cc(F)c(F)cc3[nH]2)cc1 | ≥ 6.00
10) Cc1cc2nc(-c3ccnn3C)[nH]c2cc1C | ≤ 5.00
11) Cc1ccc2[nH]c(-c3ccc(C(F)(F)F)cc3)nc2c1C | ≥ 6.00
12) O=C(O)c1ccc(N2CC3(CN(C(=O)NCc4ccc(Cl)cc4Cl)C3)C2)cc1 | 5.90
13) FC(F)(F)c1ccc(-c2nc3ccccc3[nH]2)cc1 | 5.00 to 6.00
14) O=C(NCc1ccc(Cl)cc1Cl)N[C@@H]1CCC12CN(S(=O)(=O)c1ccc(Cl)cc1)C2 | 5.57
15) NS(=O)(=O)c1ccc(-n2nc(CNC(=O)Nc3cccc(C(F)(F)F)c3)cc2-c2ccccc2)cc1 | 7.08
16) O=C(NCc1ccc(Cl)cc1Cl)N1CC2CN(c3ncccn3)C2C1 (racemic) | 6.44
17) O=C(NC12CC3CC(CC(C3)C1)C2)N1CC2(CCN2S(=O)(=O)c2ccc(Cl)cc2)C1 | 5.59
18) O=c1[nH]nc(-c2ccc(-c3nc4cc(F)c(F)cc4[nH]3)cc2)o1 | ≥ 6.00
19) CC(=O)Nc1ccc(-c2nc3cc(F)c(F)cc3[nH]2)cc1 | ≤ 5.00
